target: HLA-A*11:01; assay: IEDB peptide-MHC binding, purified MHC/competitive/radioactivity; filed as Kd, often an IC50 or EC50 that approximates it; bounds were set here for any values at or beyond the usual limits of such assays; conditions: source organism: Vaccinia virus WR
pKd: −log10 of the molar value.
Assign class by pKd: not lower than 6 means class 1; lower than 6 means class 0.

Example entries and their recorded answers appear below.
Primary sequence | Category
DVDIYDAVR | class 0
YITIQDRPR | class 0
IANSNIIKNK | class 1
DICSKHMDAR | class 0
PIINTHSFY | class 0

Would you kindly look at the next entry?
**Q:** Please indicate if the recorded pKd for NLKAMLYIIR meets or exceeds 6.
**A:** class 0

###

Item-by-item account of pKd
target: HLA-B*35:01; assay: IEDB peptide-MHC binding, purified MHC/competitive/radioactivity; filed as Kd, often an IC50 or EC50 that approximates it; bounds were set here for any values at or beyond the usual limits of such assays; settings: source organism: SARS coronavirus Tor2
pKd: −log10 of the molar value.

Examples from the recorded data:
Primary sequence | System name | Attribute measured | Data value
WPWYVWLGFI | HLA-B*35:01 | pKd | ≤ 4.16
GPKVKYLYF | HLA-B*35:01 | pKd | ≤ 4.28

Now for a further sequence.
**Q:** Report pKd for RPKQRRPQGL tested on HLA-B*35:01.
**A:** ≤ 4.16

###

target: HLA-A*11:01; test: IEDB peptide-MHC binding, purified MHC/competitive/radioactivity; filed as Kd, often an IC50 or EC50 that approximates it; bounds were set here for any values at or beyond the usual limits of such assays; settings: source organism: Vaccinia virus WR
Item-by-item account of Kd
# output: bare number, implied unit nM

Examples from the recorded data:
Primary sequence | Attribute measured | Units label | Data value
VVDTFISYNR | Kd | nM | 343
SMLTNAISSR | Kd | nM | 258
KQYDSTDFK | Kd | nM | 33.5
SSPPIPMSR | Kd | nM | 406

Now for a further sequence.
**Q:** Please give the measured Kd for this sequence: NSQIFNIISY
**A:** 5090

###

molecular target: HLA-A*33:01; assay: IEDB peptide-MHC binding, purified MHC/competitive/radioactivity; filed as Kd, often an IC50 or EC50 that approximates it; bounds were set here for any values at or beyond the usual limits of such assays; conditions: source organism: SARS coronavirus Tor2
Attribute measured: Kd

Examples from the recorded data:
Primary sequence | Kd
AAMQRKLEK | ≥ 77.7 µM
ALCEKALKY | ≥ 35.8 µM

Now for a further sequence.
**Q:** Please give the measured Kd for this sequence: SVYAWERKK
**A:** ≥ 38.7 µM

###

molecular target: HLA-A*68:01; assay: IEDB peptide-MHC binding, purified MHC/competitive/radioactivity; filed as Kd, often an IC50 or EC50 that approximates it; bounds were set here for any values at or beyond the usual limits of such assays; conditions: source organism: Vaccinia virus WR
Item-by-item account of pKd
Bear in mind: pKd is minus log10 of a mol/L concentration; give just that figure.

Examples from the recorded data:
Primary sequence | pKd
LVVISVIFY | 5.26
IANSNIIKNK | 6.67
WIQYDKHCY | 5.53
SSPPIPMSR | 6.12

Now for a further sequence.
**Q:** Report pKd for KTNDINVRRR tested on HLA-A*68:01.
**A:** 6.07
